System: endogenous target monocytes in human PBMC
run.description: PBMC ex vivo monocyte depletion flow cytometry assay (Example 200)
Assay type: cell-based
cond: with anti-cotinine antibody (SEQ ID NO: 11/12), 18-24 hours, EC50 in molar, read-out: Ex Vivo Depletion Assay pEC50 (converted)
endpoint: EC50 (nM)
Report the value in nM with no unit label.

INSERT INTO results (molecule, endpoint, measured_number) VALUES
  ('CC(C)N(C)[C@@H]1CC[C@H](N2CC[C@H](Nc3ncnc4ccc(C(F)(F)F)cc34)C2=O)[C@H](NC(=O)CCCNc2c(NCCOCCOCCOCCOCCNC(=O)[C@H]3CC(=O)N(C)[C@@H]3c3cccnc3)c(=O)c2=O)C1 [Example 164]', 'EC50', 1),
  ('CC(C)N(C)[C@@H]1CC[C@H](N2CC[C@H](Nc3ncnc4ccc(C(F)(F)F)cc34)C2=O)[C@H](NC(=O)CCCCCCCCC(=O)NCCCCCCCCCCNC(=O)[C@H]2CC(=O)N(C)[C@@H]2c2cccnc2)C1 [Example 165]', 'EC50', 0.631),
  ('CC(C)N(C)[C@@H]1CC[C@H](N2CC[C@H](Nc3ncnc4ccc(C(F)(F)F)cc34)C2=O)[C@H](NC(=O)CCCCCCCCC(=O)NCCCCCCNC(=O)[C@H]2CC(=O)N(C)[C@@H]2c2cccnc2)C1 [Example 166]', 'EC50', 1.26);

Here's the next entry for you.
Request: Given the entry CC(C)N(C)[C@@H]1CC[C@H](N2CC[C@H](Nc3ncnc4ccc(C(F)(F)F)cc34)C2=O)[C@H](NC(=O)[C@H]2CC[C@H](N3CCN(CCOCCOCCNC(=O)[C@H]4CC(=O)N(C)[C@@H]4c4cccnc4)CC3)CC2)C1 [Example 190] , report its measured EC50.
Response: 3.16

The values you see were collected from patent US12521393B2.
